Values compiled from patent US20250270173A1.

biological target: UniProtKB P28223; assay: FLIPR Ca2+ flux functional assay at 5-HT2A (HEK293); settings: Ca2+ flux, HEK293, at max concentration
Reported Metric: 5-HT2A % Act @ Max Conc. (%)
Your answer should be a plain number; it is taken to be in %.

Kindly state the measured 5-HT2A % Act @ Max Conc. obtained for CCCCCc1cc(OC)c(CC(C)N)nc1OC (stereo not drawn) with UniProtKB P28223.
132.71

How about `COc1cc(CCCCC(F)(F)F)c(OC)nc1CCN` ?
48.95

How about COc1cc(CCN)c(OC)cc1Br [Compound 2C-B, 2C-B, reference compound] ?
99.7

====

Can you tell me pEC50 for the items I'm about to list?
biological target: 5-HT1A receptor (Homo sapiens (Human), UniProt P08908); experiment: FLIPR Ca2+ flux functional assay at 5-HT1A (CHO cells)
pEC50: −log10 of the molar value.

Reported pEC50, molecule CCCc1cc(OC)c(CC(N)CC)nc1OC (stereo not shown) : ____
< 4.00

How about `COc1cc(CCCCC(F)(F)F)c(OC)nc1CCN` ?
< 4.00

How about `COc1cc(CCCCCC(F)(F)F)c(OC)nc1CCN` ?
4.04

How about CCSc1cc(OC)c(CC(C)N)nc1OC (stereo not shown) ?
< 4.00

How about `COc1cc(CCCCCF)c(OC)nc1CCN` ?
< 4.00

How about COc1cc(C)c(OC)nc1CC(C)N (stereo not shown) ?
< 4.00

How about CCCCCc1cc(OC)c(CC(C)N)nc1OC (stereo not shown) ?
4.32

====

Can you tell me 5-HT1A % Act @ Max Conc. for the items I'm about to list?
molecular target: UniProt:P08908; assay: FLIPR Ca2+ flux functional assay at 5-HT1A (CHO cells); details: Ca2+ flux, CHO cells, at max concentration
Include the unit after the number when you answer.

Reported 5-HT1A % Act @ Max Conc., compound `CCc1cc(OC)c(CCN)nc1OC` : ____
1.25%

How about COc1cc(CCNCc2ccccc2OC)c(OC)cc1C [Compound 25D-NBOMe, 25D-NBOMe, reference compound] ?
−4.43%

How about `COc1cc(CCCCC(F)(F)F)c(OC)nc1CCN` ?
41.47%

How about `CCCc1cc(OC)c(CCN)nc1OC` ?
3.03%

How about `COc1cc(C)c(OC)nc1CCN` ?
−0.62%

How about `COc1ccccc1CNCCc1nc(OC)c(Br)cc1OC` ?
21.35%

How about CCCCCc1cc(OC)c(CC(C)N)nc1OC (centres unmarked) ?
67.31%

How about COc1cc(Cl)c(OC)nc1CC(C)N (centres unmarked) ?
0.79%

How about `COc1cc(CCCC(F)(F)F)c(OC)nc1CCN` ?
10.46%

How about `COc1cc(Cl)c(OC)nc1CCN` ?
5.31%

How about `COc1cc(CCCCF)c(OC)nc1CCN` ?
0.5%

====

target: 5-HT2A receptor (Homo sapiens (Human), UniProt P28223); assay: 5-HT2A receptor radioligand binding with [3H]ketanserin; settings: read-out: Ki at 5-HT2A Receptor (nM) ([3H]ketanserin); HEK293 stable cell line, 1 nM [3H]ketanserin, 1 h, 25 °C
Decision: Ki beneath 100 nM gives MET; Ki meeting or exceeding 100 nM gives NOT MET.

Please check: Ki for COc1cc(CCNCc2ccccc2OC)c(OC)cc1C [Compound 25D-NBOMe, 25D-NBOMe, reference compound] , strictly under 100 nM or not?
MET

How about `CCCCCc1cc(OC)c(CCN)nc1OC` ?
MET

How about `CCCCc1cc(OC)c(CCN)nc1OC` ?
MET

How about COc1cc(C(F)(F)F)c(OC)cc1CCN [Compound 2C-TFM, 2C-TFM, reference compound] ?
MET

How about CCCCCc1cc(OC)c(CC(N)CC)nc1OC (centres unmarked) ?
MET

How about `CCc1cc(OC)c(CCN)nc1OC` ?
NOT MET

How about CCC(N)Cc1nc(OC)c(Cl)cc1OC (centres unmarked) ?
NOT MET

How about COc1cc(Cl)c(OC)nc1CC(C)N (centres unmarked) ?
NOT MET

How about `COc1cc(CCCC(F)(F)F)c(OC)nc1CCN` ?
NOT MET

How about `CCCc1cc(OC)c(CCN)nc1OC` ?
MET

How about COc1cc(C2CC2)c(OC)nc1CC(C)N (centres unmarked) ?
NOT MET

====

target: 5-HT2A receptor (Homo sapiens (Human)); experiment: FLIPR Ca2+ flux functional assay at 5-HT2A (HEK293); details: read-out: 5-HT2A EC50; Ca2+ flux, HEK293
Can you tell me EC50 for the items I'm about to list?
Your answer should be a plain number; it is taken to be in nM.

Reported EC50, compound COc1cc(CCNCc2ccccc2OC)c(OC)cc1C [Compound 25D-NBOMe, 25D-NBOMe, reference compound] : ____
0.251

How about CCc1cc(OC)c(CCN)cc1OC [Compound 2C-E, 2C-E, reference compound] ?
0.747

How about COc1cc(CCN)c(OC)cc1Br [Compound 2C-B, 2C-B, reference compound] ?
0.478

How about COc1cc(C(F)(F)F)c(OC)cc1CCN [Compound 2C-TFM, 2C-TFM, reference compound] ?
1.05

====

Can you tell me pEC50 for the items I'm about to list?
biological target: 5-HT1A receptor (Homo sapiens (Human), UniProt P08908); test: FLIPR Ca2+ flux functional assay at 5-HT1A (CHO cells)
Please note pEC50 is a logarithmic value: minus log10 of concentration in mol/L. Answer with that number alone.

Kindly state the measured pEC50 obtained for CCCCCc1cc(OC)c(CC(N)CC)nc1OC (stereo not drawn) with 5-HT1A receptor (Homo sapiens (Human), UniProt P08908).
4.69

How about CCCCCCc1cc(OC)c(CC(C)N)nc1OC (stereo not drawn) ?
4.24

How about CCCCCc1nc(OC)c(CC(N)CC)cc1OC (stereo not drawn) ?
4.72

====

Can you tell me EC50 for the items I'm about to list?
target: 5-HT1A receptor (Homo sapiens (Human), UniProt P08908); assay: FLIPR Ca2+ flux functional assay at 5-HT1A (CHO cells)

Reported EC50, molecule CCCCCc1cc(OC)c(CCN)nc1OC [Compound 7] : ____
51.9 µM

How about CCCCCCc1cc(OC)c(CCN)nc1OC [Compound 29] ?
> 100 µM

How about COc1cc(C)c(OC)nc1CCN [Compound 8] ?
> 100 µM

How about COc1cc(C2CC2)c(OC)nc1CCN [Compound 26] ?
> 100 µM

How about COc1cc(Br)c(OC)nc1CCN [Compound 9] ?
> 100 µM

How about CCC(N)Cc1nc(OC)c(Cl)cc1OC (stereo not drawn) [Compound 18] ?
> 100 µM

====

target: 5-HT2B receptor (Homo sapiens (Human)); experiment: FLIPR Ca2+ flux functional assay at 5-HT2B (HEK293); settings: Ca2+ flux, HEK293, at max concentration
Sequence (P41595 whole entry, looked up): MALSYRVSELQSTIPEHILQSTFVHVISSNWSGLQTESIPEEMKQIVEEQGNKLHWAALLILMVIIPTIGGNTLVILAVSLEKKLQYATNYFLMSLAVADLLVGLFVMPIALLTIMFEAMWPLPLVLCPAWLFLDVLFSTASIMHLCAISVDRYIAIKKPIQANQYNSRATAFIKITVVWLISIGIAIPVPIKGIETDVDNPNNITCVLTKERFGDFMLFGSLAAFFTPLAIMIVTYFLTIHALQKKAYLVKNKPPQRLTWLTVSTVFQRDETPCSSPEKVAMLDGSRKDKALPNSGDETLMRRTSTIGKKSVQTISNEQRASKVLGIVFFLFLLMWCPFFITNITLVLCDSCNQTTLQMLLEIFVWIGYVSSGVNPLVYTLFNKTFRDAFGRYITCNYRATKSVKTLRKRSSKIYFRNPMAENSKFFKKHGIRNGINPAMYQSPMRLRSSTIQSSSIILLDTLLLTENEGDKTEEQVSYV
Reported Metric: 5-HT2B % Act @ Max Conc.
Include the unit after the number when you answer.

Reported 5-HT2B % Act @ Max Conc., molecule CCCCCCc1cc(OC)c(CC(C)N)cc1OC (stereo not shown) [Compound 42, reference compound] : ____
39.8%

How about COc1ccccc1CNCCc1nc(OC)c(Br)cc1OC [Compound 25] ?
8.22%

How about CCSc1cc(OC)c(CC(N)CC)nc1OC (stereo not shown) [Compound 24] ?
14.99%

How about CCCCCCc1cc(OC)c(CCN)nc1OC [Compound 29] ?
7.78%

How about CCCCCCc1cc(OC)c(CCN)cc1OC [Compound 44, reference compound] ?
46.79%

How about COc1cc(CCCCC(F)(F)F)c(OC)nc1CCN [Compound 35] ?
32.44%

How about COc1cc(C2CC2)c(OC)nc1CC(C)N (stereo not shown) [Compound 27] ?
61.18%

How about CCc1cc(OC)c(CC(C)N)nc1OC (stereo not shown) [Compound 20] ?
75.75%

How about CCCc1cc(OC)c(CC(N)CC)cc1OC (stereo not shown) [Compound 40, reference compound] ?
−0.18%

How about CCSc1cc(OC)c(CCN)nc1OC [Compound 22] ?
22.75%

How about COc1cc(C(F)(F)F)c(OC)cc1CCN [Compound 2C-TFM, 2C-TFM, reference compound] ?
82.0%

How about CCCCCc1cc(OC)c(CC(C)N)nc1OC (stereo not shown) [Compound 4] ?
14.53%

How about COc1cc(CCCC(F)(F)F)c(OC)nc1CCN [Compound 33] ?
1.05%

How about CCc1cc(OC)c(CCN)nc1OC [Compound 19] ?
20.07%

How about COc1cc(C)c(OC)nc1CC(C)N (stereo not shown) [Compound 5] ?
68.46%

How about COc1cc(CCCCCC(F)(F)F)c(OC)nc1CCN [Compound 30] ?
23.14%

How about COc1cc(CCCCCF)c(OC)nc1CCN [Compound 34] ?
7.93%

How about COc1cc(CCCCF)c(OC)nc1CCN [Compound 32] ?
−0.69%

How about CCCCCc1nc(OC)c(CC(N)CC)nc1OC (stereo not shown) [Compound 12] ?
7.05%

How about COc1cc(Cl)c(OC)nc1CC(C)N (stereo not shown) [Compound 17] ?
70.03%

How about CCCCCc1cc(OC)c(CC(C)N)cc1OC (stereo not shown) [Compound 41, reference compound] ?
20.0%

How about COc1cc(C2CC2)c(OC)nc1CCN [Compound 26] ?
5.16%
